The compounds listed here are annotated with their EC50.
- ASSAY NOTES: Lactate dehydrogenase (LDH) release assay
- Assay type: cell-based
- SETUP CONDITIONS: LDH: Cytotoxicity assay: EC50
Positions of bridges follow the written chain, without caps; N, C: chain ends. Non-standard residues stand in square brackets, D forms with d. Residues, ends and D or L forms follow the SMILES beside them. Lys(N3) = [N-]=[N+]=NCCCC[C@H](N)C(=O)O; R8 = C=CCCCCCC[C@@](C)(N)C(=O)O; Cba = N[C@@H](CC1CCC1)C(=O)O; S5 = C=CCCC[C@](C)(N)C(=O)O; βAla = NCCC(=O)O
QUANTITY NAME: EC50

{"COMPOUND": "CC(=O)N[C@@H](CCCCN=[N+]=[N-])C(=O)NCCC(=O)N[C@@H](CC(C)C)C(=O)N[C@H](C(=O)N[C@@H](Cc1ccccc1)C(=O)N[C@]1(C)CCCCCCC=CCCC[C@@](C)(C(=O)N[C@@H](CO)C(=O)N[C@@H](C)C(=O)N[C@@H](C)C(N)=O)NC(=O)[C@H](CC2CCC2)NC(=O)[C@H](CCC(N)=O)NC(=O)[C@H](C)NC(=O)[C@H](Cc2c[nH]c3ccccc23)NC(=O)[C@H](Cc2ccc(O)cc2)NC(=O)[C@H](CCC(=O)O)NC1=O)C(C)C [MP-258] (Ac-[Lys(N3)][βAla]LVF[R8]EYWAQ[Cba][S5]SAA-NH2; staple 6-13)", "OBSERVED MEASUREMENT": "> 50.6 µM"}
{"COMPOUND": "CC(=O)N[C@H](CC(C)C)C(=O)N[C@H](C(=O)N[C@@H](Cc1ccccc1)C(=O)N[C@]1(C)CCCCCCC=CCCC[C@@](C)(C(=O)N[C@@H](CO)C(=O)N[C@H](C)C(=O)N[C@@H](C)C(N)=O)NC(=O)[C@H](CC2CCC2)NC(=O)[C@H](CC(C)C)NC(=O)[C@H](CCC(N)=O)NC(=O)[C@H](Cc2c[nH]c3ccccc23)NC(=O)[C@H](Cc2ccc(O)cc2)NC(=O)[C@H](CCC(=O)O)NC1=O)[C@@H](C)O [MP-7201]", "OBSERVED MEASUREMENT": "> 50 µM"}
{"COMPOUND": "CC(=O)N[C@@H](CCCCN=[N+]=[N-])C(=O)NCCC(=O)N[C@@H](CC(C)C)C(=O)N[C@H](C(=O)N[C@@H](CO)C(=O)N[C@]1(C)CCCCCCC=CCCC[C@@](C)(C(=O)N[C@@H](CO)C(=O)N[C@@H](C)C(=O)N[C@@H](C)C(N)=O)NC(=O)[C@H](CO)NC(=O)[C@H](CCC(N)=O)NC(=O)[C@H](C)NC(=O)[C@H](CO)NC(=O)[C@H](Cc2ccc(O)cc2)NC(=O)[C@H](CCC(=O)O)NC1=O)[C@@H](C)O [MP-3352] (Ac-[Lys(N3)][βAla]LTS[R8]EYSAQS[S5]SAA-NH2; staple 6-13)", "OBSERVED MEASUREMENT": "> 50.6 µM"}
{"COMPOUND": "CC(C)C[C@H](NC(=O)[C@@H](N)CCCCN=[N+]=[N-])C(=O)N[C@H](C(=O)N[C@@H](Cc1ccccc1)C(=O)N[C@]1(C)CCCCCCC=CCCC[C@@](C)(C(=O)N[C@@H](CCC(=O)O)C(N)=O)NC(=O)[C@H](CC2CCC2)NC(=O)[C@H](CCC(N)=O)NC(=O)[C@H](C)NC(=O)[C@H](Cc2c[nH]c3ccccc23)NC(=O)[C@H](Cc2ccc(O)cc2)NC(=O)[C@H](CCC(=O)O)NC1=O)[C@@H](C)O [MP-4009] (H-[Lys(N3)]LTF[R8]EYWAQ[Cba][S5]E-NH2; staple 5-12)", "OBSERVED MEASUREMENT": "> 50 µM"}
